Published IC50 for Protein arginine N-methyltransferase 5 (Homo sapiens, UniProt O14744), assembled from different documents, is shown next.

See these solved cases before continuing.
>>> assayresult("NCCNCc1ccc(-c2ccc3cnn(Cc4cccc(C(=O)N5CCOCC5)c4)c3c2)cc1")
"117 nM"
>>> assayresult("Nc1nc2cc(CCC3=C[C@@H](n4ccc5cnccc54)[C@H](O)[C@@H]3O)cc(F)c2cc1Cl")
"0.3 to 0.95 nM"
>>> assayresult("Cn1ccc(-c2cn(-c3cncc(COc4ccc(C(=O)N5CCOCC5)c(N)c4)c3)c3ncnc(N)c23)n1")
"> 1000 nM"

# evaluate next
Form field - read-out: IC50; system: Protein arginine N-methyltransferase 5 (Homo sapiens, UniProt O14744); submitted item: `Cn1[nH]c2nc3cc(CC[C@H]4C[C@@H](n5ccc6c(N)ncnc65)[C@H](O)[C@@H]4O)ccc3cc2c1=O`
> 100 nM
